- Test system: 217524-143-R1-J4-PDC spheroids with HUVEC/MSC, viability;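 also: spheroids exposed to agents for seven days before reading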
- assay-text: Anticancer human tumor 217524-143-R1-J4-PDC patient-derived pancreatic carcinoma cell line growth inhibition [CLK]
- stated-conditions: second compound 0.0316 µM; first compound 0.316 µM; stronger effect = lower value
Friendly reminder: viability, T/C below 70% is true, at or above is false.

- O=C(c1cc(Cc2n[nH]c(=O)c3ccccc23)ccc1F)N1CCN(C(=O)C2CC2)CC1 + CNC(=O)c1ccc(Nc2nc(OC3CCCC3)c3c(-c4ccc5nc(C)oc5c4)c[nH]c3n2)c(OC)c1: false
- C#Cc1c(F)ccc2cc(O)cc(-c3ncc4c(N5CC6CCC(C5)N6)nc(OCC56CCCN5CC(F)C6)nc4c3F)c12 (stereo not given) + CN1CCN(c2cc(C(=O)Nc3cc4cc(-c5cnn(C)c5)ccc4cn3)ccn2)CC1: true
- C=C(F)C(=O)N1CCN(c2nc(OCC3CCCN3C)nc3c2CCN(c2cccc4cccc(Cl)c24)C3)CC1CC#N (stereo not given) + CN1CCN(c2cc(C(=O)Nc3cc4cc(-c5cnn(C)c5)ccc4cn3)ccn2)CC1: false
- CCc1c2c(nc3ccc(O)cc13)-c1cc3c(c(=O)n1C2)COC(=O)[C@]3(O)CC + CNC(=O)c1ccc(Nc2nc(OC3CCCC3)c3c(-c4ccc5nc(C)oc5c4)c[nH]c3n2)c(OC)c1: true

Turning to the following compound.
Query string: Regarding CC1COCCN1c1cc(C2(S(C)(=N)=O)CC2)nc(-c2ccnc3[nH]ccc23)n1 (stereo not given) + CN1CCN(c2cc(C(=O)Nc3cc4cc(-c5cnn(C)c5)ccc4cn3)ccn2)CC1 , kindly confirm whether its viability, T/C is beneath 70%.
Result string: true
